Test system: LPS-induced microglia activation
Experiment: Image-based assay of LPS-induced microglia activation (HTS and dose response)
Assay type: cell-based, rat
Conditions: Rattus norvegicus, Microglia, LPS-induced microglia activation, dose response; read-out: LPS IC50 (uM) (Suppl. Table 7)
Structures can show the parent of a compound that is named as a salt.
assayMetric: IC50 (µM)
Value expressed in µM; do not type the unit.

INSERT INTO measurements (molecule, studysystem, readoutunits, value) VALUES
  ('COC(=O)Nc1nc2ccc(C(=O)c3ccccc3)cc2[nH]1 [Mebendazole, reference compound]', 'LPS-induced microglia activation', 'µM', 6),
  ('C[C@]12C=CC(=O)C=C1CC[C@H]1[C@@H]3C[C@@H](O)[C@](O)(C(=O)CO)[C@@]3(C)C[C@H](O)[C@@]12F [Triamcinolone, reference compound]', 'LPS-induced microglia activation', 'µM', 0.4),
  ('CC(=O)OCC(=O)[C@@]1(O)CC[C@H]2[C@@H]3CCC4=CC(=O)CC[C@]4(C)[C@@]3(F)[C@@H](O)C[C@@]21C [Fludrocortisone acetate, reference compound]', 'LPS-induced microglia activation', 'µM', 0.4),
  ('COc1c(C)c2c(c(O)c1C/C=C(\C)CCC(=O)OCCN1CCOCC1)C(=O)OC2 [Mycophenolate mofetil, reference compound]', 'LPS-induced microglia activation', 'µM', 1);

# next molecule below
Which IC50 is listed for C1CCC(C(CC2CCCCN2)C2CCCCC2)CC1 (stereo not drawn) [Perhexiline maleate, reference compound] ? 3

----------
Test system: primary rat microglia
Experiment: Cell toxicity (dead cells, size <150 μm2) in LPS assay
Details: primary microglia HTS, 10 μM, LPS assay, cell size <150 μm^2 as marker of toxicity
Where a name gives a salt, the structure may show the parent alone.
Recorded LPS % cell toxicity for the following compounds
Respond with the bare value in %.

// solved cases for LPS % cell toxicity follow
INSERT INTO measurements (compound, value) VALUES
  ('CCCc1nc2c(C)cc(-c3nc4ccccc4n3C)cc2n1Cc1ccc(-c2ccccc2C(=O)O)cc1', 0),
  ('COc1cc(NS(=O)(=O)c2ccc(N)cc2)ncn1', 1),
  ('CC(=O)Nc1ccc(S(=O)(=O)Nc2ccc([N+](=O)[O-])cc2)cc1', 0),
  ('Cc1c(C)c2c(c(C)c1O)CCC(C)(COc1ccc(CC3SC(=O)NC3=O)cc1)O2 (stereo not drawn)', 0);

// lookup LPS % cell toxicity | system=primary rat microglia | key= COc1cccc(C2(O)CCCCC2CN(C)C)c1 (stereo not drawn) [Tramadol] 0

Which measured LPS % cell toxicity belongs to COc1ccc2[nH]c([S+]([O-])Cc3ncc(C)c(OC)c3C)nc2n1 (stereo not drawn) , tested on primary rat microglia? 0

# get_value(readout= LPS % cell toxicity, system= primary rat microglia) for COc1cc2c3cc1Oc1cc(ccc1O)C[C@@H]1c4c(cc(OC)c(O)c4Oc4ccc(cc4)C[C@@H]3N(C)CC2)CC[N+]1(C)C 0

Which LPS % cell toxicity is reported with primary rat microglia for this entry: [H]/N=C(/N)NS(=O)(=O)c1ccc(N)cc1 ? 0

Please tell me: LPS % cell toxicity of CCN1CCCC1CNC(=O)c1cc(S(N)(=O)=O)ccc1OC (stereo not drawn) [Sulpiride] , system primary rat microglia? 0

Kindly state the measured LPS % cell toxicity obtained for OC[C@H]1O[C@H](O[C@]2(CCl)O[C@H](CCl)[C@@H](O)[C@@H]2O)[C@H](O)[C@@H](O)[C@H]1Cl with primary rat microglia. 0

Quick check: LPS % cell toxicity on primary rat microglia, item CN(C/C=C/C#CC(C)(C)C)Cc1cccc2ccccc12 [Terbinafine, Terbinafine Hydrochloride] ? 0

State its LPS % cell toxicity on primary rat microglia: S=C1SCN(Cc2ccccc2)CN1Cc1ccccc1 0

Request: LPS % cell toxicity, test system primary rat microglia, entry CCS(=O)(=O)CCn1c([N+](=O)[O-])cnc1C 1

Checklist item: LPS % cell toxicity tested on primary rat microglia, entry CC(C)[C@H](N)C(=O)OCC(CO)OCn1cnc2c(=O)nc(N)[nH]c21 (stereo partly drawn) , value? 1

# query: LPS % cell toxicity | item Cc1nnc(NS(=O)(=O)c2ccc(N)cc2)s1 | system: primary rat microglia 0

What reported LPS % cell toxicity corresponds to Cc1scc2c1N(C(=O)CN1CCN(C)CC1)c1ccccc1NC2=O on primary rat microglia? 0

Short answer please: LPS % cell toxicity, primary rat microglia, entry CC(C)[C@H](N)C(=O)OCCOCn1cnc2c(=O)[nH]c(N)nc21 0

Look up LPS % cell toxicity with primary rat microglia for this compound: COc1cc(C(=O)N2CCOCC2)cc(OC)c1OC 0

----------
Test system: fibrin- and LPS-induced microglia activation
Experiment: cells
Assay type: cell-based, rat
Conditions: quadrant by fibrin and LPS inhibition in HTS of 1907 compounds
assayMetric: Quadrant (FIG. 5b)

INSERT INTO results (compound, value) VALUES
  ('COP(=O)(OC)C(O)C(Cl)(Cl)Cl (stereo not drawn) [Metrifonate]', 'Q4'),
  ('CCCCCCCCCCCCCCCCOP(=O)([O-])OCC[N+](C)(C)C', 'Q4'),
  ('CC(C)OC(=O)CCC/C=C\C[C@@H]1[C@@H](CC[C@@H](O)CCc2ccccc2)[C@H](O)C[C@@H]1O', 'Q4'),
  ('COc1cc([C@@H]2c3cc4c(cc3[C@H](O)[C@H]3COC(=O)[C@H]23)OCO4)cc(OC)c1OC', 'Q2'),
  ('COC(=O)C1=C(C)NC(C)=C(C(=O)OC(C)C)C1c1cccc2nonc12 (stereo not drawn)', 'Q4');

Next, consider the following compound.
Dear colleague, I am looking for the recorded Quadrant (FIG. 5b) of the following compound: Cc1ncc(CNC(=O)N(CCCl)N=O)c(N)n1 Q4

----------
Test system: LPS-induced microglia activation
Assay: Image-based assay of LPS-induced microglia activation (HTS and dose response)
Format: cell-based, rat
Conditions: Rattus norvegicus, Microglia, 48 h; read-out: LPS % inhibition
Structures can show the parent of a compound that is named as a salt.
assayMetric: inhibition at 10 µM
Reply with the number, then its unit.

INSERT INTO measurements (compound, assaymetric, value) VALUES
  ('CCn1cc(C(=O)O)c(=O)c2cnc(N3CCCC3)nc21 [Piromidic Acid]', 'inhibition at 10 µM', '7%'),
  ('CCN1CCN(C(=O)N[C@@H](C(=O)N[C@@H]2C(=O)N3[C@@H]2SC(C)(C)[C@@H]3C(=O)O)c2ccccc2)C(=O)C1=O [Piperacillin Sodium]', 'inhibition at 10 µM', '17%'),
  ('CCCN(CCC)S(=O)(=O)c1ccc(C(=O)O)cc1 [Probenecid]', 'inhibition at 10 µM', '13%');

Okay, now this compound:
Quick check: inhibition at 10 µM of CN1C(C)(C)CCCC1(C)C [Pempidine Tartrate] ? 13%

----------
# Lookup of reported Fibrin % cell toxicity keyed by entry
Tested on: primary rat microglia
Test: Cell toxicity (dead cells, size <150 μm2) in coated fibrin (cFib) assay;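 further: share of dead cells sized under 150 µm2 at 10 µM in fibrin-stimulated microglia HTS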
Conditions: primary microglia HTS, fibrin assay, dead cells (size <150 μm2)
Where a name gives a salt, the structure may show the parent alone. Where a SMILES comes first, the peptide text is derived from it.
Number only, in %; omit the unit.

// solved cases for Fibrin % cell toxicity follow
INSERT INTO measurements (molecule, assaymetric, value) VALUES
  ('O=C1CC[C@@]2(O)[C@H]3Cc4ccc(O)c5c4[C@@]2(CCN3CC2CC2)[C@H]1O5 [Naltrexone Hydrochloride]', 'Fibrin % cell toxicity', 4),
  ('Cc1cc(=O)n(-c2ccccc2)n1C [Antipyrine]', 'Fibrin % cell toxicity', 0),
  ('CCC(C)(C)c1ccc(CC(C)CN2C[C@@H](C)O[C@@H](C)C2)cc1 (some centres unmarked)', 'Fibrin % cell toxicity', 1),
  ('Nc1ccc([As](=O)(O)O)cc1', 'Fibrin % cell toxicity', 0),
  ('CC(=O)NC(Cc1ccccc1)C(=O)O (centres unmarked)', 'Fibrin % cell toxicity', 1),
  ('COC(=O)[C@H](Cc1ccccc1)NC(=O)[C@@H](N)CC(=O)O [Aspartame] (H-Asp-Phe-OMe)', 'Fibrin % cell toxicity', 1);

// lookup Fibrin % cell toxicity for C[C@@H]1C[C@H]2[C@@H]3CCC4=CC(=O)C=C[C@]4(C)[C@@]3(Cl)[C@@H](O)C[C@]2(C)[C@@]1(OC(=O)c1ccco1)C(=O)CCl [Mometasone Furoate] 3

----------
The entries below are paired with their reported Fibrin % cell toxicity.
System: primary rat microglia
Assay: Cell toxicity (dead cells, size <150 μm2) in coated fibrin (cFib) assay;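 further: share of dead cells sized under 150 µm2 at 10 µM in fibrin-stimulated microglia HTS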
Conditions: primary microglia HTS, fibrin stimulation, toxicity = cell size <150 μm2
Please report the result as a number followed by the unit.

Here is how some molecules turned out for Fibrin % cell toxicity.
INSERT INTO assay_data (molecule, assaymetric, value) VALUES
  ('Nc1nc(=O)[nH]cc1F', 'Fibrin % cell toxicity', '1%'),
  ('C[C@]12CCC(=O)C(O)=C1CC[C@@H]1[C@@H]2CC[C@]2(C)C(=O)CC[C@@H]12', 'Fibrin % cell toxicity', '1%'),
  ('Cc1ccc(C)c(OCCCC(C)(C)C(=O)O)c1', 'Fibrin % cell toxicity', '0%'),
  ('Nc1nnc(-c2cccc(Cl)c2Cl)c(N)n1', 'Fibrin % cell toxicity', '1%'),
  ('C[C@](N)(Cc1ccc(O)c(O)c1)C(=O)O', 'Fibrin % cell toxicity', '0%'),
  ('CC[C@H](C)[C@H](N)C(=O)O', 'Fibrin % cell toxicity', '0%'),
  ('O=[N+]([O-])O[C@@H]1CO[C@H]2[C@@H]1OC[C@@H]2O [Isosorbide Mononitrate]', 'Fibrin % cell toxicity', '0%'),
  ('CCCCCC(=O)O[C@]1(C(C)=O)CC[C@H]2[C@@H]3CCC4=CC(=O)CC[C@]4(C)[C@H]3CC[C@@]21C [Hydroxyprogesterone Caproate]', 'Fibrin % cell toxicity', '1%');

Fibrin % cell toxicity lookup needed for Nc1ccn([C@@H]2CS[C@H](CO)O2)c(=O)n1 , thanks. 1%

Can you share its Fibrin % cell toxicity? I mean this molecule: COc1ccccc1OCC(O)CO (centres unmarked) 0%

// lookup Fibrin % cell toxicity for CC(=O)O[C@H]1C[C@H](O[C@H]2[C@@H](O)C[C@H](O[C@H]3[C@@H](O)C[C@H](O[C@H]4CC[C@@]5(C)[C@H](CC[C@@H]6[C@@H]5C[C@@H](O)[C@]5(C)[C@@H](C7=CC(=O)OC7)CC[C@]65O)C4)O[C@@H]3C)O[C@@H]2C)O[C@H](C)[C@H]1O[C@@H]1O[C@H](CO)[C@@H](O)[C@H](O)[C@H]1O [Lanatoside C] 1%

Please report the recorded Fibrin % cell toxicity for NCC1(CC(=O)O)CCCCC1 . 1%

Suppose we examine the molecule CCC(=O)c1c(O)cc(O)cc1O ; what Fibrin % cell toxicity value has been reported? 1%

Which measured Fibrin % cell toxicity value corresponds to O=C(O)CCCc1ccccc1 ? 0%

Report Fibrin % cell toxicity for CC(O)CN1CCN(CC(=O)[O-])CCN(CC(=O)[O-])CCN(CC(=O)[O-])CC1.[Gd+3] (centres unmarked) please. 1%

# query: Fibrin % cell toxicity of entry NP(N)(=O)NC(=O)c1ccc(F)cc1 [Flurofamide] 0%

Value lookup for Fibrin % cell toxicity; key = O=C(O)c1cc(O)c(O)c(O)c1 0%

This collection of values is drawn from patent US20210330611A1.
